Target: CRTH2 (Homo sapiens)
Sequence (Q9Y5Y4 1-395): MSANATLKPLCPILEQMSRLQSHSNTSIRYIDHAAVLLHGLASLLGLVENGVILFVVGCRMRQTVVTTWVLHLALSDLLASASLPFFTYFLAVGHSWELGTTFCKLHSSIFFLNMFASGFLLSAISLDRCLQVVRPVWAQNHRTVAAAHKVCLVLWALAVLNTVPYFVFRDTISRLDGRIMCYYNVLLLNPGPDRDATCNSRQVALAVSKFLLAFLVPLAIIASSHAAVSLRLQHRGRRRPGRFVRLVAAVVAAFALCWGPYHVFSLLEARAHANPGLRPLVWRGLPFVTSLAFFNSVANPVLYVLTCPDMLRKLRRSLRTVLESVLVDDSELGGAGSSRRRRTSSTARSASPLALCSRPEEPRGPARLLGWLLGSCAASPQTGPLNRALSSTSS
Measurement Name: Ki (nM)

O=C(O)CN1C(=O)C2(NC(=O)N(Cc3ccccc3F)C2=O)c2cc(Cl)ccc21 (stereo not shown) [Compound 108]; 4.8

1 = O=C(O)CN1C(=O)C2(CC(=O)N(CCOCc3ccccc3)C2=O)c2cc(Cl)ccc21 (stereo not shown) [Compound 29]
2 = O=C(O)CN1C(=O)C2(CC(=O)N(CCc3ccccc3)C2=O)c2cc(Cl)ccc21 (stereo not shown) [Compound 23]
3 = O=C(O)CN1C(=O)C2(CC(=O)N(Cc3cnc(Cl)cc3Cl)C2=O)c2cc(Cl)ccc21 (stereo not shown) [Compound 76]
Rank order required: Ki, descending. Write the labels out in the order the request specifies.
1, 2, 3
(1: 1130 nM, 2: 267 nM, 3: 12 nM)

----------
Target: CRTH2 (Homo sapiens, UniProt Q9Y5Y4)
Sequence (Q9Y5Y4 1-395): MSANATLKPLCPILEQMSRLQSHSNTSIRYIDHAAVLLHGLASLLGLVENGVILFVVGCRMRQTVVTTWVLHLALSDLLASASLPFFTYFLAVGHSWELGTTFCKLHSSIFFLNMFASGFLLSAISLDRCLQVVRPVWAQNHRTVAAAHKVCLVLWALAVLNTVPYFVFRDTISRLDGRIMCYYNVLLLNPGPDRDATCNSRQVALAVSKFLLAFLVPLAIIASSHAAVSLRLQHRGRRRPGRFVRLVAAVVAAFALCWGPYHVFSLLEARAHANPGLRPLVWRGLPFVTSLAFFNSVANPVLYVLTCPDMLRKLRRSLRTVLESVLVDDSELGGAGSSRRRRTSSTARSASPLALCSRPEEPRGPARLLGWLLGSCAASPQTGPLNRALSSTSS
Measurement Name: Ki (nM)

Here is how some compounds turned out for Ki.
O=C(O)CN1C(=O)[C@]2(CC(=O)N(Cc3cc(Cl)ccc3F)C2=O)c2cc(Cl)ccc21; 470
COc1ccnc(CN2C(=O)CC3(C2=O)C(=O)N(CC(=O)O)c2ccc(Cl)cc23)c1OC (stereo not drawn); 101
O=C(O)CN1C(=O)C2(CC(=O)N(Cc3ccccn3)C2=O)c2cc(Cl)ccc21 (stereo not drawn); 170
O=C(O)CN1C(=O)C2(CC(=O)N(Cc3ccc4ccccc4n3)C2=O)c2cc(Cl)ccc21 (stereo not drawn); 93

1 = O=C(O)CN1C(=O)C2(CC(=O)N(C/C=C/c3ccccc3)C2=O)c2cc(Cl)ccc21 (stereo not drawn)
2 = N#Cc1ccc(CN2C(=O)CC3(C2=O)C(=O)N(CC(=O)O)c2ccc(Cl)cc23)cc1 (stereo not drawn)
3 = Cn1ccnc1CN1C(=O)CC2(C1=O)C(=O)N(CC(=O)O)c1ccc(Cl)cc12 (stereo not drawn)
4 = O=C(O)CN1C(=O)[C@]2(CC(=O)N(Cc3ccccc3F)C2=O)c2cc(Cl)ccc21
5 = O=C(O)CN1C(=O)C2(CC(=O)N(Cc3cccc(Oc4ccccc4)c3)C2=O)c2cc(Cl)ccc21 (stereo not drawn)
Arrange the 5 compounds from largest to smallest Ki. State the ranking by listing the labels in the requested order.
3, 1, 5, 2, 4
